All figures here come from ChEMBL document CHEMBL1909046.

System Under Test: UniProt:P04626
Sequence (P04626 whole entry): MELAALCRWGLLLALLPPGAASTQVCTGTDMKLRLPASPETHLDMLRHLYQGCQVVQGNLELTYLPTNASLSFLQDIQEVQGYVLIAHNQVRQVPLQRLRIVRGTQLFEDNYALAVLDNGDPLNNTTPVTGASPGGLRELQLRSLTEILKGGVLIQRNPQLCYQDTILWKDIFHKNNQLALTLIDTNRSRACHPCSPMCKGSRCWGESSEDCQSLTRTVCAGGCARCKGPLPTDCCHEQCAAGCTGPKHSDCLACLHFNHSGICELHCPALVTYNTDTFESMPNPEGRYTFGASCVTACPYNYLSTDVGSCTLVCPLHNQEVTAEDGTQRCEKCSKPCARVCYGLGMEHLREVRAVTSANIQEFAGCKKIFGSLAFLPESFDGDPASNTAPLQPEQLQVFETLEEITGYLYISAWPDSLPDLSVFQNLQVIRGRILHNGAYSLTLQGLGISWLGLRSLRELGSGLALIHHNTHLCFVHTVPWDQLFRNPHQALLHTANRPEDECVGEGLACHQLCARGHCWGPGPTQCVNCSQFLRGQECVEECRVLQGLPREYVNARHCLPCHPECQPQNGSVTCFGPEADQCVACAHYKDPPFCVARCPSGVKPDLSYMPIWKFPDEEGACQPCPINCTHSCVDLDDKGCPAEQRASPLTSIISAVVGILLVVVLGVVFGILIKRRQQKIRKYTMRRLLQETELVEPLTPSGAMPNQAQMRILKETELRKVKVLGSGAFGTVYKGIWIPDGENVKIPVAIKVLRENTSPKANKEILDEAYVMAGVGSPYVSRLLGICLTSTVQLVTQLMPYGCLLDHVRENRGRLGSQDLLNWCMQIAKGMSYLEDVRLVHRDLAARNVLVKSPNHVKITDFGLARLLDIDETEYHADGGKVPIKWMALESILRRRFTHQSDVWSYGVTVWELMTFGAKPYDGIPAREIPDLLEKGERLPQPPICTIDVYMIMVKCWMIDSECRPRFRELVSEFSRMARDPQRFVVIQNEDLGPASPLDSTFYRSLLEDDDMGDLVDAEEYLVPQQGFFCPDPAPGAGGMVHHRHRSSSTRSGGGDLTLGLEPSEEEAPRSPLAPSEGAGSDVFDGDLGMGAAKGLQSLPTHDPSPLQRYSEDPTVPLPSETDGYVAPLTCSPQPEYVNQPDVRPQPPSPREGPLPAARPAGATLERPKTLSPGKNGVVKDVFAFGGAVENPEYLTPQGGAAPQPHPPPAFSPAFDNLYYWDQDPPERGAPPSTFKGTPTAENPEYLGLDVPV
Type: cell-based
Condition Context: insect cells; further: in other assays of this panel Not Active means under 50% inhibition at 10 µM;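 further: inhibition of HER2 kinase enzyme activity, measured with Poly(Glu:Tyr) as the phosphorylation substrate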
Quantity Kind: IC50

CNCCCC12CCC(c3ccccc31)c1ccccc12 [MAPROTILINE] : Not Active
CC#C[C@]1(O)CC[C@H]2[C@@H]3CCC4=CC(=O)CCC4=C3[C@@H](c3ccc(N(C)C)cc3)C[C@@]21C [MIFEPRISTONE] : Not Active
CC(=O)[C@]1(O)Cc2c(O)c3c(c(O)c2[C@@H](O[C@H]2C[C@H](N)[C@H](O)[C@H](C)O2)C1)C(=O)c1ccccc1C3=O [IDARUBICIN] : Not Active
CC(CN1c2ccccc2Sc2ccccc21)N(C)C (stereo not drawn) [PROMETHAZINE] : Not Active
CC(N)C12CC3CC(CC(C3)C1)C2 (stereo not drawn) [RIMANTADINE] : Not Active
C[C@]12CCC(=O)C[C@@H]1CC[C@@H]1[C@@H]2CC[C@]2(C)[C@@H](O)CC[C@@H]12 [STANOLONE] : Not Active
C[N+]1(C)[C@@H]2C[C@@H](OC(=O)[C@H](CO)c3ccccc3)C[C@H]1[C@@H]1O[C@@H]12.[Br-] [METHSCOPOLAMINE BROMIDE] : Not Active
CC(C)(C#N)c1cc(Cn2cncn2)cc(C(C)(C)C#N)c1 [ANASTROZOLE] : Not Active
C#C[C@]1(O)CC[C@H]2[C@@H]3CCC4=CC(=O)CC[C@@H]4[C@H]3CC[C@@]21C [NORETHINDRONE] : Not Active
C=C(Cl)Cl [1,1-DICHLOROETHENE] : Not Active
CC(Cl)(Cl)Cl [TRICHLOROETHANE] : Not Active
CC1(COc2ccc(CC3SC(=O)NC3=O)cc2)CCCCC1 (stereo not drawn) [CIGLITAZONE] : Not Active
CCOC(=O)C1=C(C)NC(C)=C(C(=O)OCC)C1c1ccccc1/C=C/C(=O)OC(C)(C)C [LACIDIPINE] : Not Active
CO[C@@H]1[C@@H](OC)[C@H](C)[C@@](O)(CC(=O)O)O[C@H]1[C@H](C)[C@H]1O[C@@]2(CC[C@@](C)([C@H]3CC[C@@](C)([C@@H]4O[C@@H]([C@H]5O[C@](C)(O)[C@H](C)C[C@@H]5C)C[C@@H]4O[C@@H]4C[C@H](OC)[C@@H](OC)[C@H](C)O4)O3)O2)C[C@H](O)[C@H]1C.N [MADURAMICIN] : Not Active
O=C1c2ccccc2C(=O)C1c1ccccc1 [PHENINDIONE] : Not Active
CC(C)(c1ccc(O)cc1)c1ccc(O)cc1 [BISPHENOL A] : Not Active
O=C(c1ccccc1)c1ccc2n1CCC2C(=O)O (stereo not drawn) [KETOROLAC] : Not Active
CC1(C)[C@H](C(=O)O)N2C(=O)C[C@H]2S1(=O)=O [SULBACTAM] : Not Active
Cc1cn([C@H]2C=C[C@@H](CO)O2)c(=O)[nH]c1=O [STAVUDINE] : Not Active
c1ccc(Cn2ccnc2)cc1 : Not Active
Nc1nc(F)nc2c1ncn2[C@@H]1O[C@H](CO)[C@@H](O)[C@@H]1O [FLUDARABINE] : Not Active
CN(Cc1cc(Br)cc(Br)c1N)C1CCCCC1 [BROMHEXINE] : Not Active
C[N+](C)(C)CCOP(=O)([O-])OC[C@H](O)CO : Not Active
OC[C@H]1O[C@@H]2O[C@H]3[C@H](O)[C@@H](O)[C@@H](O[C@H]4[C@H](O)[C@@H](O)[C@@H](O[C@H]5[C@H](O)[C@@H](O)[C@@H](O[C@H]6[C@H](O)[C@@H](O)[C@@H](O[C@H]7[C@H](O)[C@@H](O)[C@@H](O[C@H]8[C@H](O)[C@@H](O)[C@@H](O[C@H]1[C@H](O)[C@H]2O)O[C@@H]8CO)O[C@@H]7CO)O[C@@H]6CO)O[C@@H]5CO)O[C@@H]4CO)O[C@@H]3CO [BETADEX] : Not Active
O=c1[nH]c2ccccc2c2ccccc12 : Not Active
NCC(CC(=O)O)c1ccc(Cl)cc1 (stereo not drawn) [BACLOFEN] : Not Active
OC[C@H]1O[C@@H]2O[C@H]3[C@H](O)[C@@H](O)[C@@H](O[C@H]4[C@H](O)[C@@H](O)[C@@H](O[C@H]5[C@H](O)[C@@H](O)[C@@H](O[C@H]6[C@H](O)[C@@H](O)[C@@H](O[C@H]7[C@H](O)[C@@H](O)[C@@H](O[C@H]1[C@H](O)[C@H]2O)O[C@@H]7CO)O[C@@H]6CO)O[C@@H]5CO)O[C@@H]4CO)O[C@@H]3CO [ALFADEX] : Not Active
C#C[C@]1(O)CC[C@H]2[C@@H]3[C@H](C)CC4=C(CCC(=O)C4)[C@H]3CC[C@@]21C [TIBOLONE] : Not Active
